Listing: GI50 of selected compounds
- Test system: HOP-62 NSCLC
- assay info: NCI tumour cell line growth inhibition, 48 h

These solved cases illustrate the format of a correct answer.
smiles_representation=C/C=C/C/C=C/[C@H](C)C[C@H](O)[C@@H]1C[C@@H]2O[C@H]2/C=C/[C@@H]2OC(C)(C)O[C@H]2/C=C/C[C@H](C)CC(=O)O1 result_value="15.1 µM"
smiles_representation=O=C(CSCC(=O)N/N=C/c1ccccc1O)N/N=C\c1ccccc1O result_value="1.31 µM"
smiles_representation=C[C@]12CC[C@@H]3c4ccc(O)cc4CC[C@H]3[C@@H]1CC[C@@H]2NS(=O)(=O)c1ccc(Br)cc1 result_value="2.77 µM"
smiles_representation=CCN(CC)c1c(-c2ccccc2)n[nH]c1C(=O)OC result_value="44.6 µM"
smiles_representation=O=C1Nc2cc(-c3cccc(O)c3)ccc2/C1=C/c1ccc[nH]1 result_value="2.3 µM"

Noted GI50 for CNC(=O)c1cc(Oc2cccc3nc(NC(=O)Nc4cc(C(F)(F)F)cc(C(F)(F)F)c4)ccc23)ccn1 , tested on HOP-62 NSCLC: 3.37 µM

// returns GI50 for Nc1nonc1-c1nc2ccccc2n1Cc1ccc(F)cc1 with HOP-62 NSCLC; value = 14.6 µM

For the compound O=C1CC[C@H](N2Cc3c(OCc4ccc(CN5CCOCC5)cc4)cccc3C2=O)C(=O)N1 , the measured GI50 on HOP-62 NSCLC was > 100 µM

Hey, HOP-62 NSCLC data for O=C(Nc1cccc(-n2cc(-c3ccncc3)c(-c3ccc(O)c(Cl)c3)n2)c1)c1ccc2c(c1)OCCO2 : GI50 came out at > 100 µM

###

Readings of TGI for the listed compounds
- Tested on: HCT-116 colon
- assay info: NCI tumour cell line growth inhibition, 48 h
// return numeric value only (unit: µM, not printed)

smiles_representation=CCCCCCCCCCCCCCCCCCNCc1ccc(Cl)cc1 readout_type=TGI result_units=µM result_value=11.7
smiles_representation=C=C1c2ccccc2C(=O)c2c1c1c(C(=O)OC)c(OC(=O)OCc3ccc([N+](=O)[O-])cc3)ccc1n2Cc1ccccc1 readout_type=TGI result_units=µM result_value=20.4
smiles_representation=O=C(O)CCO/N=C1/C(c2c(O)[nH]c3ccccc23)=Nc2ccccc21 readout_type=TGI result_units=µM result_value=34.8

For reference, reported TGI for CC(=O)Oc1ccc2c(c1)[C@@]1(C)CCCC(C)(C)[C@@H]1CC2 stands at 32.8

###

Recorded TGI for the following compounds
- Tested on: OVCAR-5 ovarian
- assay info: NCI tumour cell line growth inhibition, 48 h

Please review the entries below; each comes with its answer.
compound=COC(=O)c1cccc2c3ccccc3c3ccccc3c12 result_value="> 100 µM"
compound=OB(O)c1ccccc1C#Cc1ccccc1B(O)O result_value="81.4 µM"
compound="CN1CC(c2ccccc2)C(O)(C2(c3ccccc3)CN(C)CC(c3ccccc3)C2=O)C(c2ccccc2)C1 (centres undefined)" result_value="> 100 µM"

Now let's try a different one.
// sample N#COc1ccc(Oc2ccccc2)cc1 , its TGI was > 100 µM

###

- Tested on: MCF7 breast
- assay info: NCI tumour cell line growth inhibition, 48 h; in the data active = GI50 below about 0.43 µM; inactive = the rest
Field 'call' accepts yes (active), no (inactive)

Consider the following illustrative entries.
smiles_representation=COc1cc(-n2cc(-c3ccccc3)[nH]c2=O)cc(OC)c1OC target="MCF7 breast" discrete_label=no
smiles_representation=Cc1ccc(S(=O)(=O)OCC#CCOS(=O)(=O)c2ccc(C)cc2)cc1 target="MCF7 breast" discrete_label=no
smiles_representation=O=C(NCCc1ccccc1)Nc1ccc2cc3ccc(NC(=O)NCCc4ccccc4)cc3nc2c1 target="MCF7 breast" discrete_label=yes
smiles_representation=O=[N+]([O-])c1cccc(-c2nc(-c3ccc(Cl)cc3Cl)cn2-c2ccccc2)c1 target="MCF7 breast" discrete_label=no

# evaluate next
Enquiry: I would be grateful if you could indicate the recorded call for N#Cc1ccc(-c2c(-c3ncn[nH]3)sc(N3CCOCC3)c2C#N)c(F)c1 .
Return: yes

###

- Tested on: LOX IMVI melanoma
- assay info: NCI tumour cell line growth inhibition, 48 h
readout type: TGI

Examples with their reported TGI follow.
molecule="CC(C)(C)C1CCC2c3c([nH]c4ncccc34)C3C(=O)N(c4ccccc4)C(=O)C3C2C1 (stereo not given)" result_value="> 100 µM"
molecule=N#Cc1cc2c(cc1C#N)/C(=N\c1cccc(N)n1)N=C2Nc1cccc(N)n1 result_value="> 100 µM"
molecule=Cc1cc(-c2nnc(/C=C/c3ccc4c(c3)OCO4)o2)n[nH]1 result_value="> 50 µM"
molecule=CC1=C(/C=C/C(=O)CC(=O)/C=C/C2=C(C)CCCC2(C)C)C(C)(C)CCC1 result_value="81 µM"

Consider the additional molecule presented here.
GET /value?item= O=C1C[C@H](COCc2ccccc2)NC(=O)C[C@H](COCc2ccccc2)NC(=O)C[C@H](COCc2ccccc2)N1 &field=TGI returns > 100 µM

###

- Tested on: MCF7 breast
- assay info: NCI tumour cell line growth inhibition, 48 h
readout type: TGI (µM)
Numbers only here, please. The scale is µM.

Briefly, TGI measured for CC(=O)c1c(SCCN2CCOCC2)n(-c2ccccc2)c(=S)n(-c2ccccc2)c1=O : 5.31

The compound listed as CN(C)C(=O)OCc1nc2c(N3CCOCC3)nc(-c3ccccc3)nc2n1C has a reported TGI of 2.09

compound C=C1CCCC(C)(C)[C@H]1C/C=C1\CCOC1=O , TGI observed: 25.4

###

The following compounds are listed with their measured TGI values.
- Test system: MCF7 breast
- assay info: NCI tumour cell line growth inhibition, 48 h
# value in µM; strip the unit string

Previously resolved entries follow.
smiles_representation=CN(CCNC(=O)c1c[nH]c2c1ccc1ccccc12)CCNC(=O)c1c[nH]c2c1ccc1ccccc12 readout_type=TGI result_units=µM result_value=2.74
smiles_representation=CNC(=O)c1cc(Oc2cccc3nc(NC(=O)Nc4cc(C(F)(F)F)cc(C(F)(F)F)c4)ccc23)ccn1 readout_type=TGI result_units=µM result_value=66.6
smiles_representation=COC(=O)c1c(C)[nH]c2c1C(=O)C(=O)c1nc(C)c(C)nc1-2 readout_type=TGI result_units=µM result_value=24.8

Now, please, on to the next compound.
I looked up Cc1c(Cl)c(=O)oc2cc(OC/C=C3\CCC(=O)O3)ccc12 and its TGI for MCF7 breast was 37.8

###

- Tested on: HT29 colon
- assay info: NCI tumour cell line growth inhibition, 48 h
A collection of molecules and their measured TGI

molecule=CC[C@@]1(OC(=O)CN(C)C)C(=O)OCc2c1cc1n(c2=O)Cc2cc3c(N)cccc3nc2-1 result_value="> 100 µM"

Kindly note the recorded TGI for Nc1ccc(-c2cc(C(=O)Nc3nccs3)[nH]c(=S)n2)cc1 , which is > 100 µM

Notebook: Cn1c(=O)nc2n(-c3ccc(Cl)cc3)c(-c3ccccc3)c(-c3ccccc3)nc-2c1=O , TGI read as > 100 µM

Record O=C(/C=C/c1ccc(OCc2ccccc2)cc1)NCc1ccc(C(=O)NCCc2c[nH]c3ccccc23)cc1 . Reported TGI: > 56.6 µM

Quick note, TGI for CC1=NN(c2nc(N)nc(CSc3cc(Cl)c(C)cc3S(N)(=O)=O)n2)C(C)(C)C1 landed at > 10 µM

// field: TGI; key: Cc1cccc(NC(=O)O/N=C(\Cl)C(C)C)c1 ; value = 27.2 µM

The molecule listed as COc1ccc2c(c1)c1c(n2CCN2CCOCC2)-c2cccc(OC)c2CC1 has a reported TGI of 32.2 µM

In plain terms, O=C1NC(N2CCCC(CO)C2)=N/C1=C\c1ccccc1 (stereo not drawn) has a documented TGI of > 100 µM

###

Listed molecules paired with reported TGI
- Test system: SF-295 CNS
- assay info: NCI tumour cell line growth inhibition, 48 h
A number alone suffices; assume µM.

// known answers, use as guide
molecule=COCCOCCOCc1n(Cc2ccc3ccccc3c2)c2ccccc2[n+]1Cc1ccc2ccccc2c1 result_units=µM result_value=2.16
molecule=O=S(=O)(NCCNc1nccc(-c2c(-c3ccc(F)c(O)c3)nc3sccn23)n1)c1ccc(Cl)cc1 result_units=µM result_value=14.2
molecule=CC(C)(C)OC(=O)NCCCCn1c2c(c3ccccc3c1=O)C(=O)c1ccccc1-2 result_units=µM result_value=56.1
molecule="CC1=CC(C)(c2c[nH]c3ccccc23)CC(C)(C)c2c1[nH]c1ccccc21 (centres undefined)" result_units=µM result_value=32.6

Field: next molecule
# TGI (molecule: CO[C@@H]1CCN(c2nccc(Nc3cc4c(C(C)C)ccc(N5CC(CS(C)(=O)=O)[C@H]5C)c4cn3)n2)C[C@@H]1F (some centres undefined) ) is 10.1

###

- Tested on: SK-MEL-5 melanoma
- assay info: NCI tumour cell line growth inhibition, 48 h
Decision: TGI >= 8 µM yields satisfied, all other cases yield not satisfied.

See these solved cases before continuing.
compound="COC1CC(OC2CCC3(C)C(=CCC4C3C(OC(C)=O)C(OC(=O)CC(C)C)C3(C)C(C(C)=O)CCC43O)C2)OC(C)C1OC1CC(OC)C(OC2CC(OC)C(OC3OC(C)C(O)C(OC)C3O)C(C)O2)C(C)O1 (centres undefined)" discrete_label=satisfied
compound=O=[N+]([O-])c1ccc(-n2nc3ccc4c(no[n+]4[O-])c3[n+]2[O-])c([N+](=O)[O-])c1 discrete_label="not satisfied"
compound="Cc1ccc(/C=C2/N=C(N/N=C\\C(O)C(O)C(O)CO)NC2=O)cc1 (centres undefined)" discrete_label=satisfied
compound=[N-]=[N+]=NCCCn1c2c(c3ccc([N+](=O)[O-])cc3c1=O)C(=O)c1cc3c(cc1-2)OCO3 discrete_label="not satisfied"
compound=CC(C)(C)c1cc(C(=O)Nc2ccc(C(=O)NCCN)cc2)cc(C(C)(C)C)c1 discrete_label="not satisfied"
compound="CCC1C(C)C=NN1c1nc(N)nc(C(C#N)=Nc2ccc(N(C)C)cc2)n1 (centres undefined)" discrete_label=satisfied
compound=NCCCCCNc1noc(Cc2c[nH]c3cc(Br)ccc23)n1 discrete_label=satisfied
compound="O=C(O)C1OC1C(=O)O (centres undefined)" discrete_label=satisfied

Now look at this one.
Enquiry: Quick check: does CN(CCNC(=O)c1c[nH]c2c1ccc1ccccc12)CCNC(=O)c1c[nH]c2c1ccc1ccccc12 have TGI greater than or equal to 8 µM?
Return: satisfied
